- TARGET_UNDER_TEST: EGFR T790M/L858R kinase domain (Homo sapiens (Human), UniProt P00533, L858R/T790M)
- Sequence (P00533 669-1210 T790M/L858R): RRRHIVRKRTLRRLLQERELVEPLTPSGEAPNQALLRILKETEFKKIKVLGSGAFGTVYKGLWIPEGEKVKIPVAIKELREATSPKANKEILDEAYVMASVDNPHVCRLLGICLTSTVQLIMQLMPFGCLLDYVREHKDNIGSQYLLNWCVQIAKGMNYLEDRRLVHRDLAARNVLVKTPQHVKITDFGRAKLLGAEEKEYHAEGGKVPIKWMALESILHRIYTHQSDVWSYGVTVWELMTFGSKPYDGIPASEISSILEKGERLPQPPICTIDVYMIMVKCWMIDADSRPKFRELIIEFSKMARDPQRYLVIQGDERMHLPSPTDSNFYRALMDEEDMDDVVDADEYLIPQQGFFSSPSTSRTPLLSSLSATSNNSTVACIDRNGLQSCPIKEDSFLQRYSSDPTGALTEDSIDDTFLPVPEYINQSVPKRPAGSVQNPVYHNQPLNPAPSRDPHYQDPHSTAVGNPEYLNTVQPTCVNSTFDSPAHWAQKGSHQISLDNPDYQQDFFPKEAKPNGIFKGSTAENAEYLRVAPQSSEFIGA
- EXPERIMENT_SUMMARY: EGFR enzymatic assay, TR-FRET, EGFR T790M/L858R
TEST_READOUT: IC50 (nM)

// worked examples, IC50 included
| MOLECULE | TARGET_UNDER_TEST | IC50 [nM] |
| --- | --- | --- |
| CCCCCCCCCCCC(=O)N[C@@H]1[C@H]2Oc3ccc(Oc4ccnc5c4CCC(=O)N5)cc3[C@@H]12 | EGFR T790M/L858R kinase domain (Homo sapiens (Human), UniProt P00533, L858R/T790M) | 885 |
| CN1CCN(Cc2ccc(C(=O)N[C@@H]3[C@H]4Oc5ccc(Oc6ccnc7c6CCC(=O)N7)cc5[C@@H]34)cc2)CC1 | EGFR T790M/L858R kinase domain (Homo sapiens (Human), UniProt P00533, L858R/T790M) | 18 |
| CCN1CCN(Cc2ccc(C(=O)N[C@@H]3[C@H]4Oc5ccc(Oc6ccnc7c6CCC(=O)N7)cc5[C@@H]34)cc2C(F)(F)F)CC1 | EGFR T790M/L858R kinase domain (Homo sapiens (Human), UniProt P00533, L858R/T790M) | 0.1 |
| O=C1CCc2c(Oc3ccc4c(c3)[C@H]3[C@H](NC(=O)c5ccc(CN6CCCCC6)c(C(F)(F)F)c5)[C@H]3O4)ccnc2N1 | EGFR T790M/L858R kinase domain (Homo sapiens (Human), UniProt P00533, L858R/T790M) | 504 |
| CCN1CCN(Cc2ccc(C(=O)N[C@@H]3[C@H]4Oc5ccc(Oc6ccnc7c6CCC(=O)N7)cc5[C@@H]34)cc2C)CC1 | EGFR T790M/L858R kinase domain (Homo sapiens (Human), UniProt P00533, L858R/T790M) | 3.1 |
| CCCCCC(=O)N[C@@H]1[C@H]2Oc3ccc(Oc4ccnc5c4CCC(=O)N5)cc3[C@@H]12 | EGFR T790M/L858R kinase domain (Homo sapiens (Human), UniProt P00533, L858R/T790M) | 1410 |
| CCN1CCC(Cc2ccc(C(=O)N[C@@H]3[C@H]4Oc5ccc(Oc6ccnc7c6CCC(=O)N7)cc5[C@@H]34)cc2C(F)(F)F)CC1 | EGFR T790M/L858R kinase domain (Homo sapiens (Human), UniProt P00533, L858R/T790M) | 0.2 |
| O=C1CCc2c(Oc3ccc4c(c3)[C@H]3[C@H](NC(=O)Cc5cccc(C(F)(F)F)c5)[C@H]3O4)ccnc2N1 | EGFR T790M/L858R kinase domain (Homo sapiens (Human), UniProt P00533, L858R/T790M) | 2550 |
| CCCCCCC(=O)N[C@@H]1[C@H]2Oc3ccc(Oc4ccnc5c4CCC(=O)N5)cc3[C@@H]12 | EGFR T790M/L858R kinase domain (Homo sapiens (Human), UniProt P00533, L858R/T790M) | 95 |
| CN1CCN(Cc2ccc(C(=O)N[C@@H]3[C@H]4Oc5ccc(Oc6ccnc7c6CCC(=O)N7)cc5[C@@H]34)cc2Br)CC1 | EGFR T790M/L858R kinase domain (Homo sapiens (Human), UniProt P00533, L858R/T790M) | 0.52 |

(a) Cc1cc(C(=O)N[C@@H]2[C@H]3Oc4ccc(Oc5ccnc6c5CCC(=O)N6)cc4[C@@H]23)ccc1CN1CCN(C)CC1
(b) CCCCCCCCCC(=O)N[C@@H]1[C@H]2Oc3ccc(Oc4ccnc5c4CCC(=O)N5)cc3[C@@H]12
(c) Cc1cc(Oc2ccnc3c2CCC(=O)N3)cc2c1OC1C(NC(=O)c3ccc(CN4CCN(C)CC4)c(C(F)(F)F)c3)C21 (stereo not shown)
(d) O=C1CCc2c(Oc3ccc4c(c3)[C@H]3[C@H](NC(=O)c5cncc(C(F)(F)F)c5)[C@H]3O4)ccnc2N1
(e) C[C@H]1CN(Cc2ccc(C(=O)N[C@@H]3[C@H]4Oc5ccc(Oc6ccnc7c6CCC(=O)N7)cc5[C@@H]34)cc2C(F)(F)F)CCN1
// smallest IC50 at index 0, largest at the end Lab note: final answer is the ordered label list.
e, c, a, d, b

(I) CN(C)[C@@H]1CCCN(Cc2ccc(C(=O)N[C@@H]3[C@H]4Oc5ccc(Oc6ccnc7c6CCC(=O)N7)cc5[C@@H]34)cc2C(F)(F)F)C1
(II) CCN1CCN(Cc2ccc(C(=O)N[C@@H]3[C@H]4Oc5ccc(Oc6ccnc7c6CCC(=O)N7)cc5[C@@H]34)cc2OC(F)(F)F)CC1
(III) C[C@@H]1CN(Cc2ccc(C(=O)N[C@@H]3[C@H]4Oc5ccc(Oc6ccnc7c6CCC(=O)N7)cc5[C@@H]34)cc2C(F)(F)F)C[C@H](C)O1
(IV) O=C1CCc2c(Oc3ccc4c(c3)[C@H]3[C@H](NC(=O)c5ccc(CN6CCNCC6)c(C(F)(F)F)c5)[C@H]3O4)ccnc2N1
Put the molecules in ascending order of IC50. Sort and list the labels as requested.
IV, I, II, III

(1) CNC(=O)c1cc(Oc2ccc3c(c2)[C@H]2[C@H](NC(=O)c4ccc(CN5CCN(C)CC5)c(C(F)(F)F)c4)[C@H]2O3)ccn1
(2) CCCCCCCC(=O)N[C@@H]1[C@H]2Oc3ccc(Oc4ccnc5c4CCC(=O)N5)cc3[C@@H]12
(3) O=C1CCc2c(Oc3ccc4c(c3)[C@H]3[C@H](NC(=O)c5ccc(CO)c(C(F)(F)F)c5)[C@H]3O4)ccnc2N1
(4) CCN1CCN(Cc2ccc(C(=O)NC3C4Oc5c(C)cc(Oc6ccnc7c6CCC(=O)N7)cc5C34)cc2C(F)(F)F)CC1 (stereo not shown)
(5) O=C1CCc2c(Oc3ccc4c(c3)[C@H]3[C@H](NC(=O)c5ccc(CN6CCOCC6)c(C(F)(F)F)c5)[C@H]3O4)ccnc2N1
Would you mind ranking these molecules by ascending IC50? Your reply should list the labels following the order given in the request.
4, 1, 3, 5, 2
